experiment-description: Total plasma concentration in Sprague-Dawley rat at 10 mg/kg, po measured after 60 mins by LC-MS/MS analysis
Type: ADME, organism-based
concentration at 1 h values, listed per item
Just the number please, in nM, no unit attached.

# annotated cases, reported concentration at 1 h shown
C#Cc1ccc2c(c1)C(c1ccccn1)=NCc1c(C(=O)O)ncn1-2 161
C#Cc1ccc2c(c1)C(c1ccccn1)=NCc1c(-c3nc(CC)no3)ncn1-2 1720

# context switch: different molecule, same concentration at 1 h
The measured concentration at 1 h associated with `C#Cc1ccc2c(c1)C(c1ccccn1)=NCc1c(-c3cnco3)ncn1-2` reads 3910

----------
experiment-description: Half life in femoral artery/vein cannulated Sprague-Dawley rat at 1 mg/kg, iv administered […] as single dose by LC-MS/MS analysis
Format: ADME, organism-based
experimental-setup: in vivo
result-type: half-life

The measured half-life associated with `C#Cc1ccc2c(c1)C(c1ccccn1)=NCc1c(-c3cnco3)ncn1-2` reads 1.4 h

----------
test-system: GABA-A receptor; alpha-2/beta-3/gamma-2 (Homo sapiens, UniProt P18507+P28472+P47869)
Sequence (P18507 whole entry): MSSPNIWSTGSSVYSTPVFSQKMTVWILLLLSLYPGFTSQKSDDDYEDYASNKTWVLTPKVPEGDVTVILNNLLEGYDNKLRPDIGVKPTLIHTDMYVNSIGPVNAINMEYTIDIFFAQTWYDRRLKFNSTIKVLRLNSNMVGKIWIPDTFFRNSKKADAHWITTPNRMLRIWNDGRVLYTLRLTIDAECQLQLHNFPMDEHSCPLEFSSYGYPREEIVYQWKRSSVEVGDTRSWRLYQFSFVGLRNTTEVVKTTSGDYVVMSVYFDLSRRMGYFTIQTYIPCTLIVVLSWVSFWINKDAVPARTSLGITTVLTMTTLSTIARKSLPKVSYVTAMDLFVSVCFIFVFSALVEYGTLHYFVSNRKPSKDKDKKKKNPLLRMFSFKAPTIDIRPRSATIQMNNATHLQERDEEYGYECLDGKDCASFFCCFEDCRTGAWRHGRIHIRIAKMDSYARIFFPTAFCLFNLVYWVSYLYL
Sequence (P28472 whole entry): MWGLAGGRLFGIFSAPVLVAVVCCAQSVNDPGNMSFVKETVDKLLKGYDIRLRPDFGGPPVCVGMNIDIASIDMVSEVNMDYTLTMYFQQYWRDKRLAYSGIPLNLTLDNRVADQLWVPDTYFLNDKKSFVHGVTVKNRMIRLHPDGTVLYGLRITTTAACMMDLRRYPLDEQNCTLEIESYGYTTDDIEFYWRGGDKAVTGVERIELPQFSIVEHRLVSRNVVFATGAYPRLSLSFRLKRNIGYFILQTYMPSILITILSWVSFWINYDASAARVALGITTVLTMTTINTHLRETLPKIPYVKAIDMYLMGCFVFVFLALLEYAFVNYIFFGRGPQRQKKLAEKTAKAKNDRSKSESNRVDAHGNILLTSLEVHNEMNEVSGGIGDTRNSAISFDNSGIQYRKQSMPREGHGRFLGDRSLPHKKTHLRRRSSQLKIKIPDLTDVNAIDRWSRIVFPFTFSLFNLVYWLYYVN
Sequence (P47869 whole entry): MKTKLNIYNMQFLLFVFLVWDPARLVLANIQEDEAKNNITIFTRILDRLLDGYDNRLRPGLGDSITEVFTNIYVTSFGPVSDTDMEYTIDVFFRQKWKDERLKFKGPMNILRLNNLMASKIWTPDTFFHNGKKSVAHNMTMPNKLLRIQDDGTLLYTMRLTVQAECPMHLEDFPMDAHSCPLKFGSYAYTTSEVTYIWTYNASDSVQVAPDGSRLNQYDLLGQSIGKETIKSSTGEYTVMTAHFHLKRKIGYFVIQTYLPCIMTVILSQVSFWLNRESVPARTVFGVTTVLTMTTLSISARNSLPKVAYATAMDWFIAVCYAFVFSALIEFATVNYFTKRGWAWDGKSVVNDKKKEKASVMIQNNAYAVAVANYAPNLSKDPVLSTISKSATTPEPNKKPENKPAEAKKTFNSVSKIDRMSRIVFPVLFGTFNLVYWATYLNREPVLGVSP
experiment-description: Modulation of recombinant human GABA alpha2beta3gamma2 receptor expressed in HEK293 cells assessed as change in GABA-induced current at -80 mV holding potential preincubated for 3 mins followed by co-administration of GABA by electrophysiology method
Assay type: cell-based
result-type: EC50 (nM)
Just the number please, in nM, no unit attached.

The measured EC50 associated with `C#Cc1ccc2c(c1)C(c1ccccn1)=NCc1c(-c3cnco3)ncn1-2` reads 118

These entries and their values trace back to ChEMBL document CHEMBL4041524.
